# targetOrSystem: NLRP3 (Homo sapiens)
# methodSummary: IL-1β Secretion Assay (NLRP3-dependent IL1β secretion in THP1 cells)
# statedConditions: PMA-differentiated THP-1 cells; compounds incubated 20 h; 2.5 μM Nigericin 3 h; HTRF IL-1β readout; read-out: IC50 IL-1β Inhibition
# Experimental: Monocytic THP-1 cells (ATCC: TIB-202) were maintained in growth media consisting of RPMI 1640 medium (ThermoFisher, Cat #11875-085), 10% FBS (ThermoFisher) and 0.05 mM β-mercaptoethanol (ThermoFisher, Cat #21985-023), according to the provider's instructions. […] Compounds, once produced and prepared according to the present invention, can be assessed in variety of assays to characterize their activities. For example, NLRP3-dependent IL1β secretion was evaluated in THP1 cells. […]

| compound | IC50 |
| --- | --- |
| O[C@H]1CCCC[C@@H]1Nc1nnc(-c2ccc(C(F)(F)F)cc2C(F)(F)F)c2cccn12 [Compound 99] | 100 to 300 nM |
| O[C@H]1CCCC[C@H]1Nc1nnc(-c2ccc(C(F)(F)F)cc2CC(F)(F)F)c2cncn12 [Compound 401] | 10 to 100 nM |
| Cc1cc2c(-c3ccc(C(F)(F)F)cc3OC(F)F)nnc(N[C@@H]3CCCC[C@H]3O)n2n1 [Compound 381] | 10 to 100 nM |
| O[C@H]1CCC[C@@H](Nc2nnc(-c3ccc(C(F)(F)F)cc3OC(F)(F)F)c3cncn23)C1 [Compound 240] | < 1 nM |
| CN1CCC[C@@H](Nc2nnc(-c3ccc(C4CC4)cc3OC(F)F)c3cncn23)C1 [Compound 203] | < 1 nM |
| COc1ccc(-c2nnc(NC(C)c3cccc(O)c3)n3ccc(F)c23)c(C(F)(F)F)c1 (centres unmarked) [Compound 149] | 1 to 10 nM |
| O=C1NCCC1Nc1nnc(-c2ccc(C(F)(F)F)cc2C(F)(F)F)c2cncn12 (centres unmarked) [Compound 294] | 1 to 10 nM |
| CCN1C[C@H](F)C[C@@H](Nc2nnc(-c3ccc(Br)cc3OC(F)F)c3cncn23)C1 [Compound 196] | < 1 nM |

###

# targetOrSystem: NLRP3 (Homo sapiens, UniProt Q96P20)
# Sequence (Q96P20 whole entry): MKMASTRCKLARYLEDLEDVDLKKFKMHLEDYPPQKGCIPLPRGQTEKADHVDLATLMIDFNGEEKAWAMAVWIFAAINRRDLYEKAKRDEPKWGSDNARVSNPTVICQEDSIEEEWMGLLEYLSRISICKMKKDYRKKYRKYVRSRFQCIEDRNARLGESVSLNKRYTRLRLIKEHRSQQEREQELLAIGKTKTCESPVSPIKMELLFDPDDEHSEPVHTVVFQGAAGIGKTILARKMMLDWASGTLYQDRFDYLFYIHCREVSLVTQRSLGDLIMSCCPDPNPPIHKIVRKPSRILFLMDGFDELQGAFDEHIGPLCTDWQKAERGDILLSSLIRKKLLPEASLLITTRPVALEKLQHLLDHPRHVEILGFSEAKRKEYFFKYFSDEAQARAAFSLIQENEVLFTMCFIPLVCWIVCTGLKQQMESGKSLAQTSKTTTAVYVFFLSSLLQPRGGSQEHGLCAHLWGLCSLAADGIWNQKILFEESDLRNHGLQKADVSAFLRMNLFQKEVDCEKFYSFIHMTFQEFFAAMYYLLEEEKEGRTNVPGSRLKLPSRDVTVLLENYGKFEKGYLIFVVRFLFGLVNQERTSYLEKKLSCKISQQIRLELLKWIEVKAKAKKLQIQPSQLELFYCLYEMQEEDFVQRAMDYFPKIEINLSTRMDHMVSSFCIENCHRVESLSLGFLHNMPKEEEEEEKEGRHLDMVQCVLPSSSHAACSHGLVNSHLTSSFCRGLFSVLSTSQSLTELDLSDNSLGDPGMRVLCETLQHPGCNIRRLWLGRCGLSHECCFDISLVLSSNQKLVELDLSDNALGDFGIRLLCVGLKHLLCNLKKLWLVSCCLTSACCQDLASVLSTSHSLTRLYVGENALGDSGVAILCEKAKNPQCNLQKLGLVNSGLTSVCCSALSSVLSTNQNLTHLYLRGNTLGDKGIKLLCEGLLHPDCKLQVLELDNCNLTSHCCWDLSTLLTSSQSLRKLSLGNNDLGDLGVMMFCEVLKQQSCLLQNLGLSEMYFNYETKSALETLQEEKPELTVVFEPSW
# methodSummary: IL-1β Secretion Assay (NLRP3-dependent IL1β secretion in THP1 cells)
# statedConditions: PMA-differentiated THP-1 cells; compounds incubated 20 h; 2.5 μM Nigericin 3 h; HTRF IL-1β readout; read-out: IC50 IL-1β Inhibition
pIC50: −log10 of the molar value.

| compound | pIC50 |
| --- | --- |
| CCN1C[C@H](F)C[C@@H](Nc2nnc(-c3ccc(C(F)(F)F)cc3OC(F)F)c3cc(C)nn23)C1 [Compound 356] | > 9.00 |
| COc1cccc(C(C)Nc2nnc(-c3ccc(OC)cc3OC(F)(F)F)c3cncn23)c1 (stereo not shown) [Compound 230] | ≤ 6.52 |
| C[C@]1(CO)C[C@@H](Nc2nnc(-c3ccc(C(F)(F)F)cc3CC(F)(F)F)c3cncn23)C1 [Compound 343] | > 9.00 |
| COc1ccc(-c2nnc(N[C@@H]3CCOC[C@H]3O)n3nc(C)cc23)c(CC(F)(F)F)c1 [Compound 384] | 8.00 to 9.00 |
| COc1ccc(-c2nnc(N[C@@H]3CCCC[C@H]3O)n3cncc23)c(CC(F)(F)F)c1 [Compound 237] | 8.00 to 9.00 |
| FC(F)(F)Cc1cc(C(F)(F)F)ccc1-c1nnc(Nc2cc[nH]n2)n2cccc12 [Compound 97] | 7.00 to 8.00 |
| O[C@H]1COCC[C@@H]1Nc1nnc(-c2ccc(C(F)(F)F)cc2CC(F)(F)F)c2cccn12 [Compound 113] | 8.00 to 9.00 |

###

Below, each entry is listed with its recorded pIC50.
# targetOrSystem: NLRP3 (Homo sapiens)
# methodSummary: IL-1β Secretion Assay (NLRP3-dependent IL1β secretion in THP1 cells)
# statedConditions: PMA-differentiated THP-1 cells; compounds incubated 20 h; 2.5 μM Nigericin 3 h; HTRF IL-1β readout; read-out: IC50 IL-1β Inhibition
pIC50: −log10 of the molar value.

| molecule | targetOrSystem | pIC50 |
| --- | --- | --- |
| COc1ccc(-c2nnc(NC3CC(C(C)(C)O)C3)n3cncc23)c(OC(F)(F)F)c1 (stereo not shown) | NLRP3 (Homo sapiens) | 6.52 to 7.00 |
| COc1ccc(-c2nnc(Nc3cc[nH]n3)n3cncc23)c(OC(F)F)c1 | NLRP3 (Homo sapiens) | 7.00 to 8.00 |
| O=C1NCCC1Nc1nnc(-c2ccc(C3CC3)cc2CC(F)(F)F)c2cncn12 (stereo not shown) | NLRP3 (Homo sapiens) | 8.00 to 9.00 |
| COc1ccc(-c2nnc(N[C@H]3C[C@@](C)(O)C3)n3cncc23)c(C2CC2)c1 | NLRP3 (Homo sapiens) | 7.00 to 8.00 |

###

# targetOrSystem: NLRP3 (Homo sapiens, UniProt Q96P20)
# methodSummary: IL-1β Secretion Assay (NLRP3-dependent IL1β secretion in THP1 cells)
# statedConditions: PMA-differentiated THP-1 cells; compounds incubated 20 h; 2.5 μM Nigericin 3 h; HTRF IL-1β readout; read-out: IC50 IL-1β Inhibition
# Protocol: Monocytic THP-1 cells (ATCC: TIB-202) were maintained in growth media consisting of RPMI 1640 medium (ThermoFisher, Cat #11875-085), 10% FBS (ThermoFisher) and 0.05 mM β-mercaptoethanol (ThermoFisher, Cat #21985-023), according to the provider's instructions. […] Compounds, once produced and prepared according to the present invention, can be assessed in variety of assays to characterize their activities. For example, NLRP3-dependent IL1β secretion was evaluated in THP1 cells. […]
metricName: IC50

| compound | targetOrSystem | metricName | readoutValue |
| --- | --- | --- | --- |
| C[C@]1(O)C[C@@H](Nc2nnc(-c3ccc(C(F)(F)F)cc3C3CC3)c3cncn23)C1 | NLRP3 (Homo sapiens, UniProt Q96P20) | IC50 | 1 to 10 nM |
| CCN1CC[C@@H](O)[C@@H](Nc2nnc(-c3ccc(OC)cc3OC(F)F)c3cccn23)C1 | NLRP3 (Homo sapiens, UniProt Q96P20) | IC50 | < 1 nM |
| O[C@H]1CCC[C@@H](Nc2nnc(-c3ccc(OC(F)F)cc3OC(F)(F)F)c3cncn23)C1 | NLRP3 (Homo sapiens, UniProt Q96P20) | IC50 | 1 to 10 nM |
| CN1CCC[C@@H](Nc2nnc(-c3ccc(C(F)(F)F)cc3F)c3cccn23)C1 | NLRP3 (Homo sapiens, UniProt Q96P20) | IC50 | 10 to 100 nM |
| Cc1ccc(-c2nnc(N[C@@H]3CCCN(C)C3)n3cccc23)c(OC(F)F)c1 | NLRP3 (Homo sapiens, UniProt Q96P20) | IC50 | 1 to 10 nM |
| CCN1CC[C@@H](O)[C@@H](Nc2nnc(-c3ccc(OC(F)F)cc3OC(F)(F)F)c3cccn23)C1 | NLRP3 (Homo sapiens, UniProt Q96P20) | IC50 | < 1 nM |
| O[C@H]1CCCC[C@@H]1Nc1nnc(-c2ccc(C(F)(F)F)cc2CC(F)(F)F)c2cccn12 | NLRP3 (Homo sapiens, UniProt Q96P20) | IC50 | 1 to 10 nM |
| CC(CO)N1CCC[C@@H](Nc2nnc(-c3ccc(C(F)(F)F)cc3OC(F)F)c3cccn23)C1 (some centres unmarked) | NLRP3 (Homo sapiens, UniProt Q96P20) | IC50 | < 1 nM |

###

# targetOrSystem: NLRP3 (Homo sapiens, UniProt Q96P20)
# methodSummary: IL-1β Secretion Assay (NLRP3-dependent IL1β secretion in THP1 cells)
# statedConditions: PMA-differentiated THP-1 cells; compounds incubated 20 h; 2.5 μM Nigericin 3 h; HTRF IL-1β readout; read-out: IC50 IL-1β Inhibition
Below, each entry is listed with its recorded IC50.

| molecule | IC50 |
| --- | --- |
| CCN1CCC[C@@H](Nc2nnc(-c3ccc(OC)cc3Cl)c3cc(C)nn23)C1 | 1 to 10 nM |
| COc1ccc(-c2nnc(NCc3ncnn3C)n3cccc23)c(OC(F)(F)F)c1 | 10 to 100 nM |
| Cc1ccc(-c2nnc(N[C@H]3C[C@@](C)(O)C3)n3cccc23)c(CC(F)(F)F)c1 | 1 to 10 nM |
| O[C@H]1CCC[C@@H](Nc2nnc(-c3ccc(C4CC4)cc3CC(F)(F)F)c3cncn23)C1 | 1 to 10 nM |
| O=C1NCCC1Nc1nnc(-c2ccc(C(F)(F)F)cc2OC(F)(F)F)c2cncn12 (stereo not shown) | < 1 nM |
| CN1C[C@H](F)C[C@@H](Nc2nnc(-c3ccc(Cl)cc3OC(F)F)c3cncn23)C1 | 1 to 10 nM |
| COc1ccc(-c2nnc(NC3CCNC3=O)n3cncc23)c(CC(F)(F)F)c1 (stereo not shown) | 1 to 10 nM |
| COc1ccc(-c2nnc(N[C@H]3C[C@@](C)(O)C3)n3cncc23)c(CC(F)(F)F)c1 | 1 to 10 nM |
| Cc1ccc(-c2nnc(N[C@@H]3CCCN(C)C3)n3cc(C)cc23)c(OC(F)F)c1 | 1 to 10 nM |
| CN1CCCC(Nc2nnc(-c3ccc(OC(F)F)cc3OC(F)(F)F)c3cncn23)C1=O (stereo not shown) | 10 to 100 nM |
| FC(F)(F)c1ccc(-c2nnc(N[C@@H]3CCCOC3)n3cncc23)c(C(F)(F)F)c1 | 10 to 100 nM |
| O[C@@H]1COCC[C@H]1Nc1nnc(-c2ccc(C(F)(F)F)cc2C2CC2)c2cncn12 | 10 to 100 nM |
| COc1ccc(-c2nnc(N[C@@H]3CCCN(C)C3)n3cncc23)c(CC(F)(F)F)c1 | < 1 nM |
| OCCN1CCC[C@@H](Nc2nnc(-c3ccc(Br)cc3C(F)(F)F)c3cncn23)C1 | 1 to 10 nM |
| OCCN1CCC[C@@H](Nc2nnc(-c3ccc(OC(F)F)cc3OC(F)(F)F)c3cccn23)C1 | < 1 nM |
| Cc1ccc(-c2nnc(N[C@@H]3CCCN(CCO)C3)n3cncc23)c(OC(F)F)c1 | 1 to 10 nM |
| CCN1CC[C@@H](O)[C@@H](Nc2nnc(-c3ccc(OC)cc3OC(F)(F)F)c3cc(C)cn23)C1 | < 1 nM |
| Cc1ccc(-c2nnc(N[C@@H]3CCCN(C)C3)n3nc(C)cc23)c(OC(F)F)c1 | 1 to 10 nM |
| Cc1ccc(-c2nnc(N[C@@H]3CCCC[C@H]3O)n3cncc23)c(CC(F)(F)F)c1 | 1 to 10 nM |
| CN1CCC[C@@H](Nc2nnc(-c3ccc(Br)cc3C(F)(F)F)c3cncn23)C1 | 1 to 10 nM |
| COc1ccc(-c2nnc(N[C@@H]3CCCN(C)C3)n3cncc23)c(OC(F)F)c1 | 1 to 10 nM |
| OCCN1CCC[C@@H](Nc2nnc(-c3ccc(C(F)(F)F)cc3OC3CC3)c3cccn23)C1 | 10 to 100 nM |
| COc1ccc(-c2nnc(N[C@@H]3CCCC[C@@]3(C)O)n3cncc23)c(OC(F)(F)F)c1 (single isomer, unassigned) | 1 to 10 nM |
| C[C@H](Nc1nnc(-c2ccc(C(F)(F)F)cc2OC(F)F)c2cccn12)c1cccc(O)c1 (single isomer, unassigned) | 10 to 100 nM |
| CC(Nc1nnc(-c2ccc(C(F)(F)F)cc2CC(F)(F)F)c2cncn12)c1cccc(O)c1 (stereo not shown) | < 1 nM |
| C[C@]1(O)C[C@@H](Nc2nnc(-c3ccc(C(F)(F)F)cc3CC(F)(F)F)c3cncn23)C1 | < 1 nM |
| COc1ccc(-c2nnc(N[C@@H]3CCCN(C)C3)n3cccc23)c(CC(F)(F)F)c1 | < 1 nM |
| O[C@H]1CCC[C@@H](Nc2nnc(-c3ccc(C(F)(F)F)cc3CC(F)(F)F)c3cncn23)C1 | < 1 nM |
| FC(F)Oc1cc(C(F)(F)F)ccc1-c1nnc(N[C@@H]2CCCNC2)n2cccc12 | 10 to 100 nM |
| FC(F)(F)Oc1cc(C(F)(F)F)ccc1-c1nnc(Nc2cc[nH]n2)n2cccc12 | 100 to 300 nM |
| O[C@@H]1CCCC[C@H]1Nc1nnc(-c2ccc(OC(F)F)cc2OC(F)(F)F)c2cccn12 | 1 to 10 nM |
